- System: androgen receptor (Homo sapiens)
- Assay name: Yeast two-hybrid screening of unbiased X15 peptide library, ligand induced β-galactosidase activity (FIG. 3, Table 503)
- Assay type: cell-based
- Set-up: expressed in transfected cells; host or cells: Saccharomyces cerevisiae PJ69-4α; unit not given here
- Stated conditions: yeast two-hybrid, ligand DHT
Cut-off 4 on ligand induced β-galactosidase activity, DHT, inclusive. At or above means Fulfilled; below means Not fulfilled.

- EFRFPFHEMVREWESMGLERVRYAEP [M4D1]: Not fulfilled
- EFRQSFVSEILGGGWLPLDLOPS [M2H3]: Fulfilled
- EFVNWDAVVPWSELVALLDLOPS [B8A10]: Not fulfilled
- EFPELLAMTRWGRHAALLEPQRLPPPRTTTQPQTEFERMFFFTRPMRTTGLLDLQPS [B2A7]: Not fulfilled
- EFQQCMCAEVKSWLGGSLDLQPS* [B8E9]: Not fulfilled

Consider the record given below.
State whether the measured ligand induced β-galactosidase activity, DHT reaches 4, counting equality as reaching it, for EFHSRLRVEVVSWGIGSTCSQANSGRISYDL* [B8H3]
Not fulfilled

* * *

# Lookup of reported luciferase normalized to β-galactosidase, CYP. keyed by entry
- System: androgen receptor (Homo sapiens, UniProt P10275)
- Sequence (P10275 1-920): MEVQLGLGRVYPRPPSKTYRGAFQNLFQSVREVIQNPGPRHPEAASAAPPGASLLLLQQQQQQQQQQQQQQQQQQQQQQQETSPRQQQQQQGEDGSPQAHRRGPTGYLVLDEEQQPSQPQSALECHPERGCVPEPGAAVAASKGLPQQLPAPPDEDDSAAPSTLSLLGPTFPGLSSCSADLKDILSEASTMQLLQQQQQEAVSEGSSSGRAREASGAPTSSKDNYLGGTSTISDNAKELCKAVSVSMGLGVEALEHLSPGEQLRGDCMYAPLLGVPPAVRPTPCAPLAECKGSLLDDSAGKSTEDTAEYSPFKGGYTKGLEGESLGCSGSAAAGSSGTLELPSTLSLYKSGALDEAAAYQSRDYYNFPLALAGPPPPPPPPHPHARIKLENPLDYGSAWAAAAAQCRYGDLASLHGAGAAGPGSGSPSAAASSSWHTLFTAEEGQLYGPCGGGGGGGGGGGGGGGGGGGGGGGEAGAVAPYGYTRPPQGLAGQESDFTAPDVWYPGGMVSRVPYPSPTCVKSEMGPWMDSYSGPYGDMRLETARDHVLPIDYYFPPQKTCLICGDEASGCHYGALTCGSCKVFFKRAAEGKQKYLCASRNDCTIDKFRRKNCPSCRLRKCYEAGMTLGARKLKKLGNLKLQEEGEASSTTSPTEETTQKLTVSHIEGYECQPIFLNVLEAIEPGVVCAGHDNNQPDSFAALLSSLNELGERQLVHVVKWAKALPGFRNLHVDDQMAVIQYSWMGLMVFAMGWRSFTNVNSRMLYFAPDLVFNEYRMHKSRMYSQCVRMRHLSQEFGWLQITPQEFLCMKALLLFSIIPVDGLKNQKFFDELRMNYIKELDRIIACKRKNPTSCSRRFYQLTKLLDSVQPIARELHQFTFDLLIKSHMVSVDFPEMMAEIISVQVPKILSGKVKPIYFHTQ
- Type: cell-based
- Parameters: expressed in transfected cells
- Excerpt: We used a mammalian two-hybrid system to determine specificities of the AR-binding peptides previously identified, through screening of the aforementioned yeast library, as ligand-dependent in their binding activity. Ligand was provided to the cells so the interaction could be observed. The human hepatoma cell line, Huh-7, was used as the recipient of two-hybrid vectors, pM and pVP16 (Clontech) (FIGS. 6A and 6B), containing fusions with peptide and AR, respectively. […]
I only need the number, thanks.

Some entries whose results are on file:
- HPTHSSRLWELLMEATPTM [D30]: 11.18
- EFQQCMCAEVKSWLGGSLDLQPS* [B8E9]: 16.02
- EFRSSVFEQMYLCTGGSLDLQPS* [B5G11]: 4.462

Turning to the following substance.
Sample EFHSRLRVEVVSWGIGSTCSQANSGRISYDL* [B8H3] — what was its luciferase normalized to β-galactosidase, CYP.?
10.47
